# Tested target: HLA-A*02:01 (Homo sapiens, UniProt P04439, D140Y/D185E/D98H/E176V/E277Q/G131W/G231S/I119V/I121R/I166T/I218V/L300P/L318F/N151K/N90K/P208A/P217A/Q86G/Q94H/R138H/R169H/T345S)
# Test details: MHC binding assay (UV-ligand exchange, β2m ELISA, peptide exchange yield)
# Conditions used: binding to HLA-A*02:01
# Excerpt: Candidate peptides for T cell based therapies according to the present invention were further tested for their MHC binding capacity (affinity). The individual peptide-MHC complexes were produced by UV-ligand exchange, where a UV-sensitive peptide is cleaved upon UV-irradiation, and exchanged with the peptide of interest as analyzed. Only peptide candidates that can effectively bind and stabilize the peptide-receptive MHC molecules prevent dissociation of the MHC complexes. […]
Quantity: Peptide Exchange (MHC class I binding score, peptide exchange yield)

Please review the entries below; each comes with its answer.
344 (VLAFENPQV; listed as Homo sapiens) [compound 344]: “+++” (>50 = +++)
48 (FLSPQQPPLL; listed as Homo sapiens) [compound 48]: “+++” (>50 = +++)
137 (NLIKTVIKL; listed as Homo sapiens) [compound 137]: “+++” (>50 = +++)
324 (SLYSALQQA; listed as Homo sapiens) [compound 324]: “+++” (>50 = +++)
264 (TILDYINVV; listed as Homo sapiens) [compound 264]: “+++” (>50 = +++)

Now look at this one.
IN: Quick one: Peptide Exchange (MHC class I binding score, peptide exchange yield) of 55 (FMEPTLLML; listed as Homo sapiens) [compound 55] ?
OUT: “+++” (>50 = +++)

---

# Tested target: HLA-A*02:01 (Homo sapiens, UniProt P04439, D140Y/D185E/D98H/E176V/E277Q/G131W/G231S/I119V/I121R/I166T/I218V/L300P/L318F/N151K/N90K/P208A/P217A/Q86G/Q94H/R138H/R169H/T345S)
# Test details: MHC binding assay (UV-ligand exchange, β2m ELISA, peptide exchange yield)
# Conditions used: binding to HLA-A*02:01
Quantity: Peptide Exchange (MHC class I binding score, peptide exchange yield)

185 (VMDDQRDLI; listed as Homo sapiens) [compound 185]: “++” (>20% = ++)
105 (KLMNDIADI; listed as Homo sapiens) [compound 105]: “++” (>20% = ++)
38 (FIMEGGAMV; listed as Homo sapiens) [compound 38]: “+++” (>50 = +++)
276 (VLNDGAPNV; listed as Homo sapiens) [compound 276]: “+++” (>50 = +++)

---

# Tested target: HLA-A*02:01 (Homo sapiens, UniProt P04439, D140Y/D185E/D98H/E176V/E277Q/G131W/G231S/I119V/I121R/I166T/I218V/L300P/L318F/N151K/N90K/P208A/P217A/Q86G/Q94H/R138H/R169H/T345S)
# Test details: MHC binding assay (UV-ligand exchange, β2m ELISA, peptide exchange yield)
# Conditions used: binding to HLA-A*02:01
Quantity: Peptide Exchange (MHC class I binding score, peptide exchange yield)

249 (LLPTGVFQV; listed as Homo sapiens) [compound 249]: “+++” (>50 = +++)
236 (GLLESGRHYL; listed as Homo sapiens) [compound 236]: “+++” (>50 = +++)
298 (IILPVEVEV; listed as Homo sapiens) [compound 298]: “+++” (>50 = +++)
180 (LLKDGPEIGL; listed as Homo sapiens) [compound 180]: “++” (>20% = ++)
383 (YLLREWVNL; listed as Homo sapiens) [compound 383]: “++++” (>75% = ++++)

Lab note: each substance below needs its Peptide Exchange (MHC class I binding score, peptide exchange yield) filled in.
1. 203 (ALLSSQLAL; listed as Homo sapiens) [compound 203]
2. 181 (VLLSIPFVSV; listed as Homo sapiens) [compound 181]
3. 245 (KIMDYSLLLGV; listed as Homo sapiens) [compound 245]

OUT:
“+++” (>50 = +++)
“+++” (>50 = +++)
“++++” (>75% = ++++)

Lab note: each substance below needs its Peptide Exchange (MHC class I binding score, peptide exchange yield) filled in.
1. 280 (YTLDSLYWSV; listed as Homo sapiens) [compound 280]
2. 124 (LLLEETEKQAV; listed as Homo sapiens) [compound 124]
3. 142 (QLDEPAPQV; listed as Homo sapiens) [compound 142]
4. 13 (VVDGMPPGV; listed as Homo sapiens) [compound 13]
5. 237 (GLQENLDVVV; listed as Homo sapiens) [compound 237]

OUT:
“+++” (>50 = +++)
“+++” (>50 = +++)
“++” (>20% = ++)
“+++” (>50 = +++)
“++++” (>75% = ++++)

Lab note: each substance below needs its Peptide Exchange (MHC class I binding score, peptide exchange yield) filled in.
1. 178 (VLFFNVQEV; listed as Homo sapiens) [compound 178]
2. 310 (LLSTLHLLV; listed as Homo sapiens) [compound 310]
3. 76 (GLLRIIPYL; listed as Homo sapiens) [compound 76]

OUT:
1: “+++” (>50 = +++); 2: “+++” (>50 = +++); 3: “+++” (>50 = +++)
